assay: folding stability dG unfold (combined trypsin and chymotrypsin); higher = more stable
// values below are reported folding stability dG unfold
Entry rule: numbers only, all in kcal/mol.

> print(dat)
                              inputsequence       uom  resultnumber
1  MKKKVTISIKRKSEVKYTKFPNGEVVPVEDLGGLTVTIEVPESELEELLKKLDIPEDEIEEITVTITPEASS [r1_351_JUSTAS]  kcal/mol         0.648

Task item: folding stability dG unfold lookup needed for SAGGSAGGSAGGKIKLTVTVDADGNATVTLEIEVESPEDKPFTIRLTLTFPLKDGESLTSAGGSAGGSAGGS [r10_763_TrMRF] , thanks.
Reply: 3.82

Task item: Would you kindly share the measured folding stability dG unfold for SKFKIDEIKYEPNKPYTIKVKLPDGTTIEIKYDPNKPNEVKIILTHPDGSKKEFTLPYNYPININLKVNPSA [r9_875_TrMRF] ?
Reply: 1.95

====

test: folding stability dG unfold (combined trypsin and chymotrypsin); higher = more stable
assayMetric: folding stability dG unfold (kcal/mol)
Provide the reading as a plain figure in kcal/mol.

# example entries with known answers
> print(dat)
                              inputsequence                  assaymetric  resultnumber
1  SAGGYELELVFRFKLELKVGDGTLSFDLDLVIRIPLEPPAVPIGVEVKEDGSLVLTYPNGLKAEIPLSAGGS [r16_136_TrMRF]  folding stability dG unfold          3.93
2  SAGMTVKVKVEVKTKYFDKNGKLVKEEKKTVEVEVEVKIVIELKPEDLEKAKELAEKLGIEITEEELKSAGG [r19_315_TrROS_Hall]  folding stability dG unfold          1.74

Task item: Item under review: SAGGSAGGSAGSWELSYRFPGVQIEVTYSPEWGFITEIKVQPLPPPPPPSPEDAKEMKEKSAGGSAGGSAGG [r11_320_TrROS] . Reported folding stability dG unfold?
Reply: 2.02

====

assay: folding stability dG unfold from chymotrypsin proteolysis; higher = more stable
Listing: folding stability dG unfold of selected sequences
Dear colleague, please return just the value in kcal/mol, with no unit written.

> print(dat)
                              inputsequence       uom  resultnumber
1  SAGGSAGGSAGGSMSVSSVGSSSGAGMIVKTTYFPGSGGTTVVLIEPASGVVLATTPVPGSAGGSAGGSAGG [r7_154_JUSTAS]  kcal/mol         0.272
2  SATREIELPGKKITIHHNPGNNMFRITIYDPKPGKPVEIPIPANNPGMTMENIIDQIREAAKKGRPVRISAG [r14_157_TrROS]  kcal/mol         0.671
3  SGLKDVISVTVTQSPTAGEVPVVTAYSPDGSRTFNLAPEETEAFLKALREAGYNVVVTDRVFVPVPAELGSA [r9_607_JUSTAS]  kcal/mol          1.38
4  SAGGSAGGSAGGMTLEELKNLKPGEEVEIEIEVYDKNGKKVSKYRIRIYNDKIEIEKLPSAGGSAGGSAGGS [r10_394_TrROS_Hall]  kcal/mol          2.99
5  SAPLEQLLEFAEEFAQAYGYRVEIEVYRNGEPKGTYEIPMPKPGQPPVSIMIRIPDPNLYIHVTIYMPRSAG [r14_728_TrROS]  kcal/mol          3.07

Task item: Using the record for SAGGSAGGVKEALEELLKKLKPGEKKTITLEIEVDGKLVKIEIEVLPDGEIKITKIEEIPKEDLSAGGSAGG [r6_87_TrROS_Hall] , report its folding stability dG unfold.
Reply: 1.95

Task item: Using the record for SAGGKVTLRAPVVVPKDKIEDFIDALREALEALGLKEFKDIEIKEIIEGDDYYIIDFEVTAEADLPELASAG [r5_575_TrMRF] , report its folding stability dG unfold.
Reply: 2.21

Task item: Request the reported folding stability dG unfold associated with SAGGSAGGSAGDIPAIPKVIFIPYPIEKIEVFEDSVVVRVIHPDGGSETIVFPDRALILGSAGGSAGGSAGG [r11_957_TrMRF]
Reply: 1.47

Task item: So what does the record say about folding stability dG unfold for SAGGSAGGEDKYLVVEFTVPEGKAEEFIAEVKKKIPPNWKIERVEIVEKTEDGLYRVRVVLKPGSAGGSAGG [r6_340_TrMRF] ?
Reply: 4.88
